subjectOfTest: Sphingosine 1-phosphate receptor 3 (Homo sapiens) (UniProt Q99500)
Sequence (Q99500 whole entry, looked up): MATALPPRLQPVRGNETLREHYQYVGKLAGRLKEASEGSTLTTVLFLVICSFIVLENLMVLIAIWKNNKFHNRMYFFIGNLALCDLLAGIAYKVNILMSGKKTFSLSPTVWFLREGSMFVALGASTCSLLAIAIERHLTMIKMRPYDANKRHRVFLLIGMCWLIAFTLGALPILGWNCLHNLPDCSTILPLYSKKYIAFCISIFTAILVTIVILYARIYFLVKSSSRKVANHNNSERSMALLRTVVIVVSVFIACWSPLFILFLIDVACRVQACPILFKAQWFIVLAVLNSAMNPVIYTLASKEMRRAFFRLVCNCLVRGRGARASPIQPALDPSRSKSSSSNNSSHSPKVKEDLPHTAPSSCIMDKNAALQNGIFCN
test: human S1P3 receptor agonists, primary screen, cell-based, primary and confirmation, NFAT-BLA reporter (AID 373)
conditionSummary: S1P3 NFAT-BLA reporter cells, agonism, FRET ratio, at 4.5 µM, hits give high values, relative to 1 µM S1P, basal subtracted
The whole screen tested about 60,000 compounds, of which about 60 (0.1%) were called active. The sample holds actives, similar compounds and a random draw of the others, so the mix is not that of the screen.
Item-by-item account of activation
Kindly answer with a numeric value in %, unit omitted.

Example cases with answers are listed next.
O=C(NCCN1CCOCC1)c1ccc2c(c1)ncn2C1CCCC1; -0.2
Cc1cnc(NC(=O)CSc2nnc(-c3ccc(Cl)cc3Cl)n2N)s1; -0.7
CC(=O)Nc1ccc(NS(=O)(=O)c2cc(C)sc2C)cc1; -0.3
O=C(CN1C(=O)C2C3C=CC(C3)C2C1=O)NCCc1ccccc1Cl (stereo unspecified); 0.1
O=C(CCC(=O)OCC(F)(F)C(F)F)NCc1ccccc1; -0.2

Next:
Given item CC1(C)CCCC2=C1CC1C(=O)N(c3ccccc3)C(=O)C1C2 (stereo unspecified) , the value recorded as its activation is -0.8

---

Reported activation by item:
subjectOfTest: Sphingosine 1-phosphate receptor 3 (Homo sapiens)
test: human S1P3 receptor agonists, primary screen, cell-based, primary and confirmation, NFAT-BLA reporter (AID 373)
conditionSummary: S1P3 NFAT-BLA reporter cells, agonism, FRET ratio, at 4.5 µM, hits give high values, relative to 1 µM S1P, basal subtracted
About 60 (0.1%) of roughly 60,000 compounds were called active. Shown is part of a subset that was picked to be rich in actives.
Expressed in %, but write only the number.

Query Cc1ccnc(N2C(=O)c3ccccc3C2Nc2ccc3c(c2)OCCO3)c1 (stereo not drawn) yields activation of 0.3

Lookup result for Cc1ccc2nc(NC(=O)C3CCN(S(=O)(=O)c4ccc5c(c4)oc(=O)n5C)CC3)sc2c1 ; measured activation: -0.9

// activation lookup, molecule = Cc1cc(C(F)(F)F)nn1CC(=O)N1CCCC1 , result: -0.4

In plain terms, CC1(C)CC(=O)C(C2=NC(C)(C)Cc3ccccc32)=C(O)C1 has a documented activation of -2

For O=C(Nc1nccs1)C1CCCN1S(=O)(=O)c1cccc2cccnc12 (stereo not drawn) the molecule record lists activation as -0.3

The recorded activation for entry CCC(=O)Nc1ccccc1C(=O)N1CCN(Cc2ccccc2)CC1 equals -1.1

For record CCCCc1nc2c(=O)[nH]c3ccccc3c2o1 the listed activation is -0.4

Looking up COc1c(Br)cc2c(C)c(C(=O)N3CCOCC3)oc2c1Br , I see its activation listed as 1.5

Value of activation reported for the molecule CCOC(=O)c1cc(-c2nnc(-c3cc(OC)c(OC)c(OC)c3)o2)c(C)nc1C is -1.5

CCN(CC)CCCN1C(=O)C(=O)/C(=C(/O)c2c(C)nc3ccccn23)C1c1ccc(C)o1 (stereo not drawn) yielded activation of 0.3

For record CC1CCN(Cc2nc3c(c(=O)n(C)c(=O)n3C)n2Cc2cccc3ccccc23)CC1 the listed activation is -0.5

So, CCOCCCNC(=O)Cc1cc(=O)[nH]c(=O)[nH]1 ? Its activation was 0.5

What the record says about OCc1nc(CO)n(Cc2ccccc2)n1 : activation is -1

The reported value for Cc1ccc(S(=O)(=O)N2CCC(N3CCCCCC3)CC2)cc1 in terms of activation is -2.7

In plain terms, N#Cc1c(N)n(CCOC(=O)c2ccc(Cl)cc2)c2nc3ccccc3nc12 has a documented activation of 2.5

activation recorded for this molecule, O=S(=O)(Nc1ccccc1N1CCOCC1)c1ccc(Cl)s1 , is 0.7

# activation of CCc1nc2ccccc2n(CCOCCOCCn2c(=O)c(CC)nc3ccccc32)c1=O = 1.3

Looking up CCCOC(=O)CC1C(=O)NCCN1Cc1ccc(F)cc1 (stereo not drawn) , I found its activation recorded as 0.3

Notebook: c1ccc(Nc2n[nH]nc2-c2ccccc2)cc1 , activation read as -1.7

Lookup result for O=C(O)c1ccc(NS(=O)(=O)c2cccc3nsnc23)cc1 ; measured activation: -0.5

// activation value for C=CCn1c(=O)c2ccccc2n2c(SCC(=O)N3CCCc4ccccc43)nnc12 : -2.3

For record Cc1cc(Nc2cccc(C)c2C)n2ncnc2n1 the listed activation is -1.3

// activation value for CC1CC(C)CN(CC(=O)Nc2ccc(S(N)(=O)=O)cc2)C1 (stereo not drawn) : -0.9

---

subjectOfTest: Sphingosine 1-phosphate receptor 3 (Homo sapiens) (UniProt Q99500)
test: human S1P3 receptor agonists, primary screen, cell-based, primary and confirmation, NFAT-BLA reporter (AID 373)
conditionSummary: S1P3 NFAT-BLA reporter cells, agonism, FRET ratio, at 4.5 µM, hits give high values, relative to 1 µM S1P, basal subtracted
In all, about 60,000 compounds went through this assay and about 60 (0.1%) were called active. The entries come from a sample that favours actives as a whole.
Entries and their measured activation follow.

The cases that follow already have their activation on record.
Cc1cccc(NC(=O)CN2CCCN(S(=O)(=O)c3ccc(Br)s3)CC2)c1; -1.4% (inactive)
COc1ccccc1CNC(=O)CCCNS(=O)(=O)c1cccc2nsnc12; 1.2% (inactive)
Cn1c(=O)[nH]c(=O)c2c1nc(Br)n2CCCCSc1nc2ccccc2o1; -1.6% (inactive)
COc1ccc(N2C(=O)C3CCCN3C2c2cccc(OC)c2)cc1 (configuration not stated); -0.5% (inactive)
CNC(=O)Nc1cc(C(C)(C)C)no1; -0.1% (inactive)

Reported activation (Sphingosine 1-phosphate receptor 3 (Homo sapiens) (UniProt Q99500)) for entry CC(C)(C)c1ccc(NC(=O)NCc2ccco2)cc1 is -0.2% (inactive)

The reported activation value, Sphingosine 1-phosphate receptor 3 (Homo sapiens) (UniProt Q99500), for COc1ccc(S(=O)(=O)N2CCN(C(=O)c3cccs3)CC2)cc1OC reads 0% (inactive)

Form: item CCOC(=O)N1CCN(CC(=O)c2ccc3c(c2)CCN3)CC1 ; test system Sphingosine 1-phosphate receptor 3 (Homo sapiens) (UniProt Q99500); activation: 0% (inactive)

---

subjectOfTest: Sphingosine 1-phosphate receptor 3 (Homo sapiens) (UniProt Q99500)
test: human S1P3 receptor agonists, primary screen, cell-based, primary and confirmation, NFAT-BLA reporter (AID 373)
conditionSummary: S1P3 NFAT-BLA reporter cells, agonism, FRET ratio, at 4.5 µM, hits give high values, relative to 1 µM S1P, basal subtracted
Among all 60,000 compounds or so, about 60 (0.1%) were called active. What follows is part of a selection rich in actives, with near analogues and random picks from the rest.
Listed next: entries and their corresponding activation.
Please state the figure in %; there is no need to write the unit.

Some molecules with recorded activation:
N#CCCN(CCC#N)c1nnc(-c2ccccc2)s1; -0.2
Cc1cc(=O)[nH]c(SCC(N)=O)c1C#N; -1
Cc1cccc(NC(=O)C2CCN(S(=O)(=O)c3cccc4cccnc34)CC2)c1; -0.2
O=c1c2ccccc2[nH]c(=S)n1CCN1CCC(=C(c2ccc(F)cc2)c2ccc(F)cc2)CC1; -2.2
COC(=O)c1ccc(CSc2nncn2C)cc1; -1.1
Cc1ccc2c(c1)sc1ncc(NC(=O)c3ccccc3)c(=O)n12; -1.1
O=C(c1ccc(-n2cnnn2)cc1)N1CCN(C(c2ccccc2)c2ccccc2)CC1; 0.7
CC1CCN(Cc2nc3c(c(=O)n(C)c(=O)n3C)n2CCc2ccccc2)CC1; -0.7
COc1ccccc1Nc1ncnc2c1oc1ccccc12; -1
O=c1cc(Cn2nnc(-c3ccc(Cl)cc3)n2)nc2sccn12; -0.5

Form field activation, entry CN(CC(=O)NC1CCCCC1)S(=O)(=O)c1cccc2cccnc12 : -1.1

---

subjectOfTest: Sphingosine 1-phosphate receptor 3 (Homo sapiens)
test: human S1P3 receptor agonists, primary screen, cell-based, primary and confirmation, NFAT-BLA reporter (AID 373)
conditionSummary: S1P3 NFAT-BLA reporter cells, agonism, FRET ratio, at 4.5 µM, hits give high values, relative to 1 µM S1P, basal subtracted
Screen size: about 60,000 compounds; about 60 (0.1%) were called active. This is one part of a sample in which actives are shown more often than they occur.
# Lookup of reported activation keyed by entry
I only need the number, in %, no unit after it.

CC(NC(=O)c1cc(-c2ccccc2)on1)c1ccccc1 (stereo unspecified); -1.3

For reference, reported activation for C[N+](C)(C)CCOP(=O)([O-])OC[C@H](O)CO stands at -3.9

Short answer for COc1ccc(-n2nnc3c(=O)n(CC(=O)N4CCC(Cc5ccccc5)CC4)cnc32)cc1 : activation was -0.4

Briefly, activation measured for CCCc1nnc(NC(=O)CN2C(=O)c3ccccc3S2(=O)=O)s1 : -1

---

subjectOfTest: Sphingosine 1-phosphate receptor 3 (Homo sapiens) (UniProt Q99500)
test: human S1P3 receptor agonists, primary screen, cell-based, primary and confirmation, NFAT-BLA reporter (AID 373)
conditionSummary: S1P3 NFAT-BLA reporter cells, agonism, FRET ratio, at 4.5 µM, hits give high values, relative to 1 µM S1P, basal subtracted
Screen size: about 60,000 compounds; about 60 (0.1%) were called active. The list comes from a sample in which actives are over-represented; it also holds close analogues and randomly drawn compounds.
readoutName: activation (%)
Report only the number, with the unit % understood.

CC1Cc2cc(/C(O)=C3\C(=O)C(=O)N(CCN4CCOCC4)C3c3ccccc3F)ccc2O1 (stereo unspecified); 0.5
CC(CNC(=O)c1ccc(Br)o1)NC(=O)c1ccc(Br)o1 (stereo unspecified); -0.8
CC1CCN(C(=O)CSc2ccc3nnc(-c4cccc(F)c4)n3n2)CC1; -0.5
Cc1nn(-c2cc(Cl)ccc2N)c(=O)c2ccccc12; -1.6
Cc1cc(C)nc(N(C#N)CC(=O)Nc2ccccc2)n1; -0.7

Looking up CCCOc1cccc(C(=O)Nc2nnn(CCC)n2)c1 , I found its activation recorded as 0

Hey, just so you know, these numbers are from PubChem BioAssay AID373.
